- Experimental System: Muscarinic acetylcholine receptor M1 (Rattus norvegicus, UniProt P08482)
- Sequence (P08482 whole entry): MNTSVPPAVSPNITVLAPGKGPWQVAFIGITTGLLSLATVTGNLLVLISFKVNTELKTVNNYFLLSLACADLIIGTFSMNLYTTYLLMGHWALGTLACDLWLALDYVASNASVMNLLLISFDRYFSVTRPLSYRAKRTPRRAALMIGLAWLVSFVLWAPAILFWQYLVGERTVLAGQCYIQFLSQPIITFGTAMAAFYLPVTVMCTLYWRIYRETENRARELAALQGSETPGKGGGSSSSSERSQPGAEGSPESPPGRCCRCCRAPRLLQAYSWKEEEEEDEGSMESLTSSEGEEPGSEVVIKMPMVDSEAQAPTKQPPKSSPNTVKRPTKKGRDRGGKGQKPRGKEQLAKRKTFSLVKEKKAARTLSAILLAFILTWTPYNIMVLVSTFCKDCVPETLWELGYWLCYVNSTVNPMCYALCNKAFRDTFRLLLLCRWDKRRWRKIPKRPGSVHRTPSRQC
Value Type: log10(Ki) (log10 of the value in µM)
All values: log10 Ki [µM].

query: Request the reported log10(Ki) associated with CN1CCC=C(C2SCC(=O)N2c2ccc(Cl)cc2)C1 (stereo unspecified)
result: 2.30

query: Entry CCN1C(=O)CSC1C1=CCCN(C)C1 (stereo unspecified) : reported log10(Ki) = ?
result: 2.36

query: Entry Cc1ccc(N2C(=O)CSC2C2=CCCN(C)C2)c([N+](=O)[O-])c1 (stereo unspecified) has what log10(Ki)?
result: 2.10

query: log10(Ki) for CN1CCC=C(C2SCC(=O)N2c2ccccc2)C1 (stereo unspecified) ?
result: 2.02

query: Using the record for CN1CCC=C(C2SCC(=O)N2c2ccc(Nc3ccccc3)cc2)C1 (stereo unspecified) , report its log10(Ki).
result: 1.28

query: // query log10(Ki) value for entry CCCCN1C(=O)CSC1C1=CCCN(C)C1 (stereo unspecified)
result: 1.51

* * *

- Test system: Rattus norvegicus
- Measurement Notes: Acute toxicity in po dosed rat assessed as death after 1 week
- Type: organism-based
- Measurement Context: in vivo, 168 h
Value Type: Activity

These solved cases illustrate the format of a correct answer.
- Compound: "CCCCCCN1C(=O)CSC1C1=CCCN(C)C1 (stereo not drawn)"
  Reported: "Non-toxic"
- Compound: "CN1CCC=C(C2SCC(=O)N2c2cccc(O)c2)C1 (stereo not drawn)"
  Reported: "Non-toxic"
- Compound: "CN1CCC=C(C2SCC(=O)N2c2ccc(Cl)cc2)C1 (stereo not drawn)"
  Reported: "Non-toxic"
- Compound: "CN1CCC=C(C2SCC(=O)N2c2ccc([N+](=O)[O-])cc2)C1 (stereo not drawn)"
  Reported: "Non-toxic"
- Compound: "CC(C)N1C(=O)CSC1C1=CCCN(C)C1 (stereo not drawn)"
  Reported: "Non-toxic"
- Compound: "CN1CCC=C(C2SCC(=O)N2c2ccc(Br)cc2)C1 (stereo not drawn)"
  Reported: "Non-toxic"
- Compound: "Cc1ccc(N2C(=O)CSC2C2=CCCN(C)C2)c([N+](=O)[O-])c1 (stereo not drawn)"
  Reported: "Non-toxic"
- Compound: "CN1CCC=C(C2SCC(=O)N2c2ccc(C(=O)O)cc2)C1 (stereo not drawn)"
  Reported: "Non-toxic"

query: Item CCN1C(=O)CSC1C1=CCCN(C)C1 (stereo not drawn) with Rattus norvegicus - Activity?
result: Non-toxic

query: GET /values?readout=Activity&system=Rattus norvegicus&item= CN1CCC=C(C2SCC(=O)N2c2ccc(Nc3ccccc3)cc2)C1 (stereo not drawn)
result: Non-toxic

query: So what Activity did CCCCN1C(=O)CSC1C1=CCCN(C)C1 (stereo not drawn) get with Rattus norvegicus?
result: Non-toxic

query: Which Activity is reported with Rattus norvegicus for this entry: CN1CCC=C(C2SCC(=O)N2c2ccccc2)C1 (stereo not drawn) ?
result: Non-toxic

query: Form: Entry = CN1CCC=C(C2SCC(=O)N2Cc2ccccc2)C1 (stereo not drawn) | System = Rattus norvegicus | Activity = ____
result: Non-toxic

* * *

For each of the molecules below, state its pKi.
- Experimental System: Muscarinic acetylcholine receptor M1 (Rattus norvegicus, UniProt P08482)
- Measurement Notes: Displacement of [3H]QNB from muscarinic M1 receptor in Wistar rat brain cortex membrane after 2 hrs by liquid scintillation counting
- Assay type: cell membranes
Formally, pKi is defined as -log10 of the concentration c, with c in mol/L.

query: Consider the molecule CN1CCC=C(C2SCC(=O)N2c2ccc(C(=O)O)cc2)C1 (configuration not stated) and give its measured pKi.
result: 4.43

query: Fill blank: measured pKi of the molecule CN1CCC=C(C2SCC(=O)N2Cc2ccccc2)C1 (configuration not stated) is ____.
result: 3.83

query: Bench note: what pKi did CN1CCC=C(C2SCC(=O)N2c2ccc([N+](=O)[O-])cc2)C1 (configuration not stated) show?
result: 4.37

query: So what's the measured pKi for this one? CN1CCC=C(C2SCC(=O)N2c2cccc(O)c2)C1 (configuration not stated)
result: 3.99

query: Which value of pKi has been reported for CN1CCC=C(C2SCC(=O)N2c2ccc(Br)cc2)C1 (configuration not stated) in the records?
result: 3.91

query: For CC(C)N1C(=O)CSC1C1=CCCN(C)C1 (configuration not stated) , what is its reported pKi?
result: 4.01

query: Tell me the measured pKi of CCCCCCN1C(=O)CSC1C1=CCCN(C)C1 (configuration not stated) , please.
result: 3.96

* * *

- Tested on: Rattus norvegicus
- Measurement Notes: Antiamnesic activity against scopolamine-induced memory loss in Wistar rat assessed as time taken to reach shock free zone at 0.1 mg/kg, ip measured for 15 mins by passive avoidance step-down task test
- Type: functional
- Design: unit not given beside the values
- Measurement Context: route intraperitoneal
Value Type: Activity
Response field accepts a number only; no unit should be typed.

query: Consider the compound CCN1C(=O)CSC1C1=CCCN(C)C1 (stereo unspecified) and give its measured Activity.
result: 4

query: Would you mind telling me what Activity value was observed for CN1CCC=C(C2SCC(=O)N2c2ccc(Nc3ccccc3)cc2)C1 (stereo unspecified) ?
result: 5

query: // Activity lookup, key: CC(C)N1C(=O)CSC1C1=CCCN(C)C1 (stereo unspecified)
result: 8

query: # Activity lookup, item CN1CCC=C(C2SCC(=O)N2c2ccc([N+](=O)[O-])cc2)C1 (stereo unspecified)
result: 7

query: So what's the measured Activity for this one? Cc1ccc(N2C(=O)CSC2C2=CCCN(C)C2)c([N+](=O)[O-])c1 (stereo unspecified)
result: 5

query: # input compound: CN1CCC=C(C2SCC(=O)N2c2cccc(O)c2)C1 (stereo unspecified) ; wanted: its Activity
result: 6

* * *

- Tested on: Rattus norvegicus
- Measurement Notes: Antiamnesic activity against scopolamine-induced memory loss in Wistar rat assessed as time taken to reach shock free zone at 0.1 mg/kg, ip measured for 15 mins by passive avoidance step-down task test
- Type: functional
- Design: unit not given beside the values
- Measurement Context: route intraperitoneal
Classify as follows. Reported Activity greater than or equal to 7: Criterion met. Reported Activity below: Criterion not met.

query: Please check the record CN1CCC=C(C2SCC(=O)N2c2ccccc2)C1 (configuration not stated) and state if its Activity is at or above 7.
result: Criterion met

query: Activity >= 7 for CN1CCC=C(C2SCC(=O)N2c2ccc(C(=O)O)cc2)C1 (configuration not stated) ?
result: Criterion not met

query: Confirm if Activity reported for the molecule CCCCN1C(=O)CSC1C1=CCCN(C)C1 (configuration not stated) is 7 or above.
result: Criterion not met

query: Item CN1CCC=C(C2SCC(=O)N2c2ccc(Cl)cc2)C1 (configuration not stated) with Activity of 7 or above?
result: Criterion not met

* * *

Consider the following molecules; for each one, report its IC50.
- Experimental System: Muscarinic acetylcholine receptor M1 (Rattus norvegicus)
- Measurement Notes: Displacement of [3H]QNB from muscarinic M1 receptor in Wistar rat brain cortex membrane after 2 hrs by liquid scintillation counting
Report as a plain number; the unit µM is understood.

query: Given the entry CN1CCC=C(C2SCC(=O)N2c2ccc(Nc3ccccc3)cc2)C1 (stereo not drawn) , what IC50 was observed with Muscarinic acetylcholine receptor M1 (Rattus norvegicus)?
result: 48

query: # get_value(readout= IC50, system= Muscarinic acetylcholine receptor M1 (Rattus norvegicus)) for CN1CCC=C(C2SCC(=O)N2Cc2ccccc2)C1 (stereo not drawn)
result: 789

query: Checklist item: IC50 tested on Muscarinic acetylcholine receptor M1 (Rattus norvegicus), entry CN1CCC=C(C2SCC(=O)N2c2ccccc2)C1 (stereo not drawn) , value?
result: 886

query: Lookup: IC50 / Muscarinic acetylcholine receptor M1 (Rattus norvegicus) / CN1CCC=C(C2SCC(=O)N2c2ccc(Br)cc2)C1 (stereo not drawn)
result: 536

query: GET /values?readout=IC50&system=Muscarinic acetylcholine receptor M1 (Rattus norvegicus)&item= CN1CCC=C(C2SCC(=O)N2c2ccc(Cl)cc2)C1 (stereo not drawn)
result: 653

query: Enter reported IC50 observed with Muscarinic acetylcholine receptor M1 (Rattus norvegicus) for CC(C)N1C(=O)CSC1C1=CCCN(C)C1 (stereo not drawn)
result: 579

query: Request - read-out IC50 | tested on Muscarinic acetylcholine receptor M1 (Rattus norvegicus) | molecule CN1CCC=C(C2SCC(=O)N2c2cccc(O)c2)C1 (stereo not drawn)
result: 563

query: State its IC50 on Muscarinic acetylcholine receptor M1 (Rattus norvegicus): CN1CCC=C(C2SCC(=O)N2c2ccc([N+](=O)[O-])cc2)C1 (stereo not drawn)
result: 158

query: Fill in the recorded IC50 for this molecule, with Muscarinic acetylcholine receptor M1 (Rattus norvegicus) as test system: CN1CCC=C(C2SCC(=O)N2c2ccc(C(=O)O)cc2)C1 (stereo not drawn)
result: 74

query: Short answer please: IC50, Muscarinic acetylcholine receptor M1 (Rattus norvegicus), entry CCCCN1C(=O)CSC1C1=CCCN(C)C1 (stereo not drawn)
result: 68

query: Tell me reported IC50 for CCN1C(=O)CSC1C1=CCCN(C)C1 (stereo not drawn) , tested with Muscarinic acetylcholine receptor M1 (Rattus norvegicus).
result: 670

query: Provide the documented IC50 with Muscarinic acetylcholine receptor M1 (Rattus norvegicus) as the system for CCCCCCN1C(=O)CSC1C1=CCCN(C)C1 (stereo not drawn)
result: 632

query: API: value(readout=IC50, system=Muscarinic acetylcholine receptor M1 (Rattus norvegicus)) for record Cc1ccc(N2C(=O)CSC2C2=CCCN(C)C2)c([N+](=O)[O-])c1 (stereo not drawn)
result: 626
